Reported normalized growth by item:
Assay: chemical genetic growth profiling, strain panel (AID 1159580);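 also: tested at 20 µM; growth read once vehicle control cultures reached saturation at 30 °C; 1 = growth at the plate median or of vehicle wells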
Conditions: S. cerevisiae deletion strains, growth OD, locus YLR039C, strain RIC1, hits give low values
About 2,000 (36%) of roughly 5,500 compounds were called active. Not shown: some 18% with an inconclusive outcome. The list shows a part of the results.
Answer with a number only.

Please review the following examples before continuing.
> print(dat)
                            compound.string  numeric.value
1  CCC[C@H](N[C@@H](C)C(=O)N1[C@H](C(=O)O)C[C@@H]2CCCC[C@@H]21)C(=O)OCC           1.03
2                        CNC(=O)O/N=C(\C)SC           1.01
3  O=[N+]([O-])c1ccc(OCCO)c([N+](=O)[O-])c1           1.18
4  CCCCC[C@H]1C(=O)O[C@H](C)[C@H](NC(=O)c2cccc(NC=O)c2O)C(=O)O[C@@H](C)[C@@H]1OC(=O)CC(C)C          0.933

Inquiry: Query: normalized growth; subject: "CCCCCCCCCCC[C@@H](C[C@H]1OC(=O)[C@H]1CCCCCC)OC(=O)[C@@H](CC(C)C)NC=O"
Reply text: 1.03

Inquiry: Give the measured normalized growth of "CC[C@@]1(O)C[C@H](O[C@H]2C[C@H](N(C)C)[C@H](O)[C@H](C)O2)c2c(cc3c(c2O)C(=O)c2c(O)ccc(O)c2C3=O)[C@H]1C(=O)OC" .
Reply text: 0.113

Inquiry: I would be grateful if you could share the reported normalized growth for "C[C@@H]1O[C@@H](O[C@H]2[C@H](Oc3cc(O)c4c(=O)cc(-c5ccc(O)cc5)oc4c3)O[C@H](CO)[C@@H](O)[C@@H]2O)[C@H](O)[C@H](O)[C@H]1O" .
Reply text: 0.963

Inquiry: I would be grateful if you could share the reported normalized growth for "Cc1ncc(CNC(=O)N(CCCl)N=O)c(N)n1" .
Reply text: 1.04

====

Experiment: chemical genetic growth profiling, strain panel (AID 1159580);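 also: tested at 20 µM; growth read once vehicle control cultures reached saturation at 30 °C; 1 = growth at the plate median or of vehicle wells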
Conditions: S. cerevisiae deletion strains, growth OD, locus YPL051W, strain arl3, hits give low values
Out of some 5,500 compounds screened, about 2,000 (36%) were called active. Not shown: some 18% with an inconclusive outcome. The list shows a part of the results.
Reported normalized growth is given for each of the following compounds.
Format: numeric value only, no unit, no commentary.

Examples with their reported normalized growth follow.
COMPOUND	normalized growth
COc1ccc(-c2coc3cc(O)ccc3c2=O)cc1	0.943
c1ccc2c(c1)sc1ccccc12	0.776
COc1ccc(C(=O)O)cc1OC	0.993

Inquiry: Which normalized growth reading was recorded for the compound COC(=O)C1=COC(OC2OC(CO)C(O)C(O)C2O)C2C(C)CC(=O)C12 (stereo not given) ?
Reply text: 1.04

====

Assay: chemical genetic growth profiling, strain panel (AID 1159580);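 also: tested at 20 µM; growth read once vehicle control cultures reached saturation at 30 °C; 1 = growth at the plate median or of vehicle wells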
Conditions: S. cerevisiae deletion strains, growth OD, locus YML016C, strain PPZ1, hits give low values
Hit rate of the full screen: of about 5,500 compounds, about 2,000 (36%) were called active. Not shown: some 18% with an inconclusive outcome. The list shows a part of the results.
normalized growth less than 1 is class 1; normalized growth greater than or equal to 1 is class 0.

These solved cases illustrate the format of a correct answer.
MOLECULE	CLASSIFICATION
C=CCc1ccc(O)c(OC)c1	class 1
CC[C@@]1(O)C[C@H](O[C@H]2C[C@H](N(C)C)[C@H](O)[C@H](C)O2)c2c(cc3c(c2O)C(=O)c2c(O)ccc(O)c2C3=O)[C@H]1C(=O)OC	class 1

Inquiry: Regarding "O=C(O[C@@H]1Cc2c(O)cc(O)cc2O[C@@H]1c1cc(O)c(O)c(O)c1)c1cc(O)c(O)c(O)c1" , kindly confirm whether its normalized growth is beneath 1.
Reply text: class 1

Inquiry: Lab note: normalized growth threshold 1. Does this molecule come in strictly under it? "COc1ccccc1-c1coc2cc(O)ccc2c1=O"
Reply text: class 0

Inquiry: normalized growth strictly < 1 for this molecule? "Clc1ccc(C(c2ccc(Cl)cc2)C(Cl)(Cl)Cl)cc1"
Reply text: class 0

Inquiry: Hi there! Is normalized growth for CC[C@@H](C(=O)C(C)[C@@H](O)[C@H](C)CCc1ccc(C)c(O)c1C(=O)O)C1OC(CC)(C2CC[C@](O)(CC)[C@H](C)O2)C[C@@H]1C (stereo not given in full) below 1, do you know?
Reply text: class 0

Inquiry: Answer whether the molecule "O=C(O[C@@H]1Cc2c(O)cc(O)cc2O[C@@H]1c1ccc(O)c(O)c1)c1cc(O)c(O)c(O)c1" has normalized growth strictly less than 1
Reply text: class 1

Inquiry: Determine if "CC[C@@]1(O)C[C@H](O[C@H]2C[C@H](N(C)C)[C@H](O)[C@H](C)O2)c2c(cc3c(c2O)C(=O)c2c(O)cccc2C3=O)[C@H]1C(=O)OC" shows normalized growth strictly lower than 1.
Reply text: class 1

Numbers sourced from PubChem BioAssay AID1159580.
